The reported numbers originate from patent US20260199323A1.

The following compounds are shown together with reported IC50 values.
tested on: SW620; test: CCK-8 tumor cell proliferation, SW620; type: cell-based, Human; details: Homo sapiens, SW-620; Table 19, IRAK4 inhibitor based; SW620; read-out: IC50 inhibiting proliferation of tumor cells, SW620

Query: Answer with IC50 of O=C1CCC(N2C(=O)c3ccc(CN4CCC(n5cc(NC(=O)c6coc(-c7ccnc(NCC8CC8)c7)n6)c(C(F)F)n5)CC4)cc3C2=O)C(=O)N1 (stereo not drawn) [GT-04174] measured for SW620.
Result: 100 to 500 nM

Query: Answer with IC50 of O=C1CCC(N2Cc3c(ccc(CN4CCC(n5cc(NC(=O)c6coc(-c7ccnc(NCC(F)(F)F)c7)n6)c(C(F)F)n5)CC4)c3F)C2=O)C(=O)N1 (stereo not drawn) [GT-04098] measured for SW620.
Result: < 50 nM

Query: Answer with IC50 of O=C1CCC(N2Cc3cc(CN4CCC(n5cc(NC(=O)c6cnn7ccc(N8CCOCC8)nc67)c(C(F)F)n5)CC4)c(F)cc3C2=O)C(=O)N1 (stereo not drawn) [GT-03811] measured for SW620.
Result: < 50 nM
